# target_desc: T1, human NMI (N-myc Interacting protein), recombinant protein (human, UniProt Q13287 1-307, limits assumed)
# T1 construct: Gene ID: 9111; also called hNMI; antigen
# T1 sequence (looked up): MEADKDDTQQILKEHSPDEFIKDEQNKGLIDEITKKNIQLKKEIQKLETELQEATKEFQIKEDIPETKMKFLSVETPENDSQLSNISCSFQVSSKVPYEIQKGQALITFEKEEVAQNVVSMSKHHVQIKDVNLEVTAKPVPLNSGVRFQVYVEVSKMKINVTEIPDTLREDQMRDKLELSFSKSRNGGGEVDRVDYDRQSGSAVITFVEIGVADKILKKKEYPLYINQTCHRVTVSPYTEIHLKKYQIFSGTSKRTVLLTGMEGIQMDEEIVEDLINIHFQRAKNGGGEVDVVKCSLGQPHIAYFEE
# test: sandwich ELISA; detection 94C4-1-biotin 1µg/mL; hNMI 1,562.500 pg/mL
endpoint_name: OD450 (OD450)
Answers are plain numbers, in OD450.

Could you share which OD450 value was measured for monoclonal antibody 98G10 (antibody, V domains shown, Rabbit monoclonal antibody) VH: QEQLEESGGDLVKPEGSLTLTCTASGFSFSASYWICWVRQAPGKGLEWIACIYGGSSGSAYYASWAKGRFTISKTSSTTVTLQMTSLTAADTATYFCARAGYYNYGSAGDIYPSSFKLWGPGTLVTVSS VL: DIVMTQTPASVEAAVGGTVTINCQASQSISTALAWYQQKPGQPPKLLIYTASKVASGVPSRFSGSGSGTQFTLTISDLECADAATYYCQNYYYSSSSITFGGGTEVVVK ?
0.525
